# Assay Text: small-molecule binders of probe aLefty1, primary screen, biochemical, small-molecule microarray, 635/667 nm fluorescence (AID 1153);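 also: score merges spot fluorescence with signal-to-noise ratio from the scanned slide images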
# Condition Notes: higher = more signal
Below: a set of entries, each annotated with reported composite z-score.
Please reply with the number alone, leaving off any unit.

Illustrative cases are given below, each with its answer.
INSERT INTO assay_data (compound, result_number) VALUES
  ('OCCCC1=CC(c2cccs2)N(Cc2cc3c(cc2Br)OCO3)CC1 (centres undefined)', 0.187),
  ('COc1cc2c(cc1OC)CN(C(=O)[C@H]1[C@@H]3C(=O)O[C@@H](c4ccccc4)[C@@H](c4ccccc4)N3[C@@H](c3ccc(O)cc3)[C@]13C(=O)Nc1ccc(C#CCCO)cc13)CC2', -0.147);

## Task For the compound CCCC[C@@H]1C[C@H]1[C@@H](NC(=O)c1ccco1)c1ccc(-c2ccccc2)cc1 , give its measured composite z-score value.
## Result 0.142

## Task For the compound Cc1ccccc1C(O)C1C=CC2C(=O)N(c3ccccc3)C(=O)C2N1Nc1ccc(C(C)C)cc1 (centres undefined) , give its measured composite z-score value.
## Result 0.317

## Task For the compound COCCCNC(=O)[C@@]1(C)c2ccccc2C(=O)N(C(C)C)[C@H]1c1ccc(CO)cc1 , give its measured composite z-score value.
## Result 0.163

## Task For the compound CC[C@@H]1C=C(C(=O)O)[C@H](c2ccc(Br)cc2)N1S(=O)(=O)c1ccc(C)cc1 , give its measured composite z-score value.
## Result -0.0989

## Task For the compound C=C[C@@H](COC(=O)OC(C)(C)C)N(Cc1ccc(OC)cc1)S(=O)(=O)c1ccc(Br)cc1 , give its measured composite z-score value.
## Result -0.0094

## Task For the compound CCOC(=O)C[C@H]1[C@H](OC(=O)c2ccc(C(=O)c3ccccc3)cc2)[C@@H](NC(=O)c2ccc3ccccc3c2)c2cc(OCCCO)ccc2N1C(=O)Cc1ccc(OC)cc1 , give its measured composite z-score value.
## Result 0.138

## Task For the compound O=C(OCc1ccccc1)C1=CCC2c3[nH]c4ccccc4c3C(=O)C1N2S(=O)(=O)c1ccccc1[N+](=O)[O-] (centres undefined) , give its measured composite z-score value.
## Result -0.192

## Task For the compound CC(CO)N1C(=O)[C@@H]2C3C(=O)OCCC/C=C\[C@H]3OC23C=CCN(C(C)(C)C)C(=O)[C@@H]13 (some centres undefined) , give its measured composite z-score value.
## Result -0.0984

## Task For the compound [N-]=[N+]=Nc1ccccc1[C@H]1OC(c2ccc(OCCCO)cc2)=N[C@@]1(CCS(=O)(=O)c1ccccc1)C(N)=O , give its measured composite z-score value.
## Result 0.138

## Task For the compound COC(=O)[C@@]1(Cc2ccc(OC)cc2)[C@H]2c3cc(C(=O)N4CCCC4)n(Cc4ccc(C)c(F)c4F)c3C[C@H]2CN1C(=O)c1ccccc1 , give its measured composite z-score value.
## Result 0.378

## Task For the compound COC(=O)[C@@]1(Cc2ccc(OC)cc2)[C@H]2c3cc(C(=O)N4CCCC4)n(CCN4CNCC4=O)c3C[C@H]2CN1C(=O)c1ccccc1 , give its measured composite z-score value.
## Result 1.86

## Task For the compound NC(=O)NCC#Cc1ccc2c(c1)[C@]1(C(=O)N2)[C@H](c2ccc(O)cc2)N2[C@H](c3ccccc3)[C@H](c3ccccc3)OC(=O)[C@H]2[C@@H]1C(=O)O , give its measured composite z-score value.
## Result -0.573
